Data provenance is patent US20240174746A1.

Biological target: T1, cynomolgus (cyno) TMEM106B (cynomolgus, UniProt Q9NUM4 2-274 (human entry))
T1 construct: Full-length cDNA transiently transfected into HEK293 cells
Test: flow cytometry, HEK293 cells transiently transfected with cyno TMEM106B
measure: fold-change in binding over parental HEK293 cells (fold)
Just the number please, in fold, no unit attached.

Look over these answered cases.
[
  {
    "binder": "TM-60 (antibody, V domains shown, Purified from mouse hybridoma) VH: QVQLQQSGPELVKPGASVKLSCKASGYTFTSYDINWVKQRPGQGLEWIGWIYPRDGNTQYIEKLKGKATLTVDTSSSTAYMELHSLTSEDSAVYFCARWIFYAMDYWGQGTSVTVSS VL: DVLMTQTPLSLPVSLGDQASISCRSSQSIVHGNGNTYLEWYLQKPGQSPKLLIYKVSNRFSGVPDRFSGSGSGTDFTLKISRVEAEDLGVYYCFQGSHLPYTFGGGTKLEIK",
    "testValue": 2.63
  },
  {
    "binder": "TM-61 (antibody, V domains shown, Purified from mouse hybridoma) VH: QVQLQQSGAELAKPGASVKLSCKASGYTFTNYWMNWVKQRPGQGLEWIGYINPSSDYTKYNQNFKDKATLTADKSSSTAYMQLNSLTYEDSAVYYCTRWGGSRSYWYFDVWGAGTTVTVSS VL: DIVMTQSPSSLSASAGEKVTMSCKSSQSLLNSGNQKNYLAWYQQKPGQSPKLLIYGASTRESGVPDRFTGSGSGTDFTLTISSVQAEDLAVYYCQNDSNYPFTFGGGTKLEMK",
    "testValue": 5.15
  }
]

Alright, here's another binder for you.
Quick one: give measured fold-change in binding over parental HEK293 cells for TM-92 (antibody, V domains shown, Purified from mouse hybridoma) VH: EVQLQQSGPELVKPGASVKIPCKASGYTFTDYTMDWVKQSPGKSLEWIGHINPNDGGTFYNQKFKGKATLTVDKSSSTAYMELRSLTSEDSAVYYCARWVYYYGISYEGGAMDYWGQGTSVTVSS VL: DVQITQSPSYLAASPGETITINCRASKSISKYLAWYQEKPGKTNKLLIYSGSTLQSGIPSRFSGSGSGTDFTLTISSLEPEDFAMYYCQQHNEYPWTFGGGTKLEIK
5.7
